Target protein (sequence): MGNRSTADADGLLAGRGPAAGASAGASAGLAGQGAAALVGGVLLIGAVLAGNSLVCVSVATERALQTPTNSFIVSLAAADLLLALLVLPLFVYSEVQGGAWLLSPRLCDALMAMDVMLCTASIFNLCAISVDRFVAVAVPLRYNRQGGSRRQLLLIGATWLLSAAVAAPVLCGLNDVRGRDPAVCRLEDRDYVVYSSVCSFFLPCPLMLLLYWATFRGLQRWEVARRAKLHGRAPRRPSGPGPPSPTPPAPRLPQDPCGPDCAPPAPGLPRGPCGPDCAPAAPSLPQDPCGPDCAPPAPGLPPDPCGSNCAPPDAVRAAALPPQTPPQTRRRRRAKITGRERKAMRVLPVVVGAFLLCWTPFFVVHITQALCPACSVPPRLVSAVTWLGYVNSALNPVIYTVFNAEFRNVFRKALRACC
In this section, each of the compounds is paired with its reported Ki.

smiles-string: O=C(NC1CCN(Cc2cccc(Br)c2)CC1)c1ccc2ccccc2c1
unit-info: µM
Ki: 0.036
//
smiles-string: COc1ccc(CN2CCC(NC(=O)c3cccc4ccccc34)CC2)cc1
unit-info: µM
Ki: 0.223
//
smiles-string: Cc1ccccc1CN1CCC(NC(=O)c2cccc3ccccc23)CC1
unit-info: µM
Ki: 0.155
//
smiles-string: COc1ccc(CN2CCC(NC(=O)c3ccc4ccccc4c3)CC2)cc1
unit-info: µM
Ki: 0.031
//
smiles-string: O=C(NC1CCN(Cc2ccc(Br)cc2)CC1)c1cccc2ccccc12
unit-info: µM
Ki: 0.044
//
smiles-string: Cc1cccc(CN2CCC(NC(=O)c3cccc4ccccc34)CC2)c1
unit-info: µM
Ki: 0.077

----------
Target: 5-hydroxytryptamine receptor 2A (Rattus norvegicus)
Experiment: Displacement of [3H]ketanserin from rat 5HT2A receptor at 1 uM

smiles-string: O=C(NC1CCN(Cc2ccc(C(F)(F)F)cc2)CC1)c1cccc2ccccc12
tested-system: 5-hydroxytryptamine receptor 2A (Rattus norvegicus)
inhibition [%]: 32
//
smiles-string: Cc1ccc(CN2CCC(NC(=O)c3cccc4ccccc34)CC2)cc1
tested-system: 5-hydroxytryptamine receptor 2A (Rattus norvegicus)
inhibition [%]: 33
//
smiles-string: COc1cccc(CN2CCC(NC(=O)c3cccc4ccccc34)CC2)c1
tested-system: 5-hydroxytryptamine receptor 2A (Rattus norvegicus)
inhibition [%]: 23
//
smiles-string: Cc1cccc(CN2CCC(NC(=O)c3cccc4ccccc34)CC2)c1
tested-system: 5-hydroxytryptamine receptor 2A (Rattus norvegicus)
inhibition [%]: 38
//
smiles-string: O=C(NC1CCN(Cc2c(F)c(F)c(F)c(F)c2F)CC1)c1ccc2ccccc2c1
tested-system: 5-hydroxytryptamine receptor 2A (Rattus norvegicus)
inhibition [%]: 4
//
smiles-string: O=C(NC1CCN(Cc2ccc([N+](=O)[O-])cc2)CC1)c1cccc2ccccc12
tested-system: 5-hydroxytryptamine receptor 2A (Rattus norvegicus)
inhibition [%]: 20
//
smiles-string: O=C(NC1CCN(Cc2ccc(Cl)cc2)CC1)c1cccc2ccccc12
tested-system: 5-hydroxytryptamine receptor 2A (Rattus norvegicus)
inhibition [%]: 23
//
smiles-string: O=C(NC1CCN(Cc2ccccc2Br)CC1)c1ccc2ccccc2c1
tested-system: 5-hydroxytryptamine receptor 2A (Rattus norvegicus)
inhibition [%]: 47
//
smiles-string: O=C(NC1CCN(Cc2ccc(C(F)(F)F)cc2)CC1)c1ccc2ccccc2c1
tested-system: 5-hydroxytryptamine receptor 2A (Rattus norvegicus)
inhibition [%]: 36
//
smiles-string: O=C(NC1CCN(Cc2cccc(Cl)c2)CC1)c1cccc2ccccc12
tested-system: 5-hydroxytryptamine receptor 2A (Rattus norvegicus)
inhibition [%]: 49
//
smiles-string: Cc1ccccc1CN1CCC(NC(=O)c2cccc3ccccc23)CC1
tested-system: 5-hydroxytryptamine receptor 2A (Rattus norvegicus)
inhibition [%]: 26
//
smiles-string: O=C(NC1CCN(Cc2cccc(C(F)(F)F)c2)CC1)c1ccc2ccccc2c1
tested-system: 5-hydroxytryptamine receptor 2A (Rattus norvegicus)
inhibition [%]: 15

Values were extracted from ChEMBL document CHEMBL1146384.
